tgt: T1, recombinant His-tagged human TIGIT-ECD protein (human, UniProt Q495A1 22-141)
T1 construct: extracellular domain; The ELISA text only says His-tagged human TIGIT; also called His-tagged TIGIT; human TIGIT protein; not shown: His tag
T1 sequence (looked up): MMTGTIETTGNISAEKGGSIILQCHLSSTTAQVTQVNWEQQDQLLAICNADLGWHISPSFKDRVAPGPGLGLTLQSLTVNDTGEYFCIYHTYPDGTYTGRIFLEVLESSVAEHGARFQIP
protocol_summary: SPR affinity ranking (Biacore T200)
metric: Kd (nM)
Note: unit nM is implicit; provide only the numeric part.

Need Kd of 101E1HM-2 (antibody, V domains shown) VH: QVQLQESGPGLVKPSQTLSLTCTVSGYSITDDYAWNWIRQPPGKGLEWMGYISYSGNTMYNPSLKSRVTISRDTSKNQFSLKLSSVTAADTAVYYCARKYYGGWFPIWGQGTLVTVSS VL: DIQMTQSPSSLSASVGDRVTITCKASQDVFTAVAWYQQKPGKAPKLLIYSASYRHTGVPSRFSGSGSGTDFTFTISSLQPEDFATYYCQQSYSTPWTFGQGTRLEIK , thanks.
1.48
